experiment: in vitro; conditions: human, hela cells, % viability
viability at 28.5 h, 10 µM listing for selected molecules.
property-label: viability at 28.5 h, 10 µM

{"columns": ["molecule", "observed-value"],
 "data": [
  ["Cc1cc(C)nc(N/N=C/c2cn(-c3ccccc3)nc2-c2ccc([N+](=O)[O-])cc2)n1", "90.5%"],
  ["CCOc1cc(OCC)cc(C(=O)N2CCC3(CC2)NC(=O)c2cc(I)ccc2O3)c1", "94.1%"],
  ["CCCC1=NN(c2ccc([N+](=O)[O-])cc2)C(=O)/C1=C/NC1CC(C)(C)NC(C)(C)C1", "84.9%"],
  ["CC(Cc1nc(-c2ccnn2C)cs1)n1cc(Cl)cn1 (stereo not shown)", "96.6%"],
  ["CC(=O)c1ccc(-c2nc(NC(=O)c3cccs3)cnc2-c2ccc(F)cc2)s1", "81.8%"],
  ["O=C(O)CCC(=O)NCc1ccc2c(c1)OCO2", "91.6%"],
  ["Cc1nc(N(C)C)ncc1C(=O)NCCSc1nnnn1C", "93.1%"],
  ["Cc1ccc(S(=O)(=O)c2cccc(S(=O)(=O)N3CCOCC3)c2)cc1S(=O)(=O)N1CCOCC1", "109%"],
  ["C[C@H]1CN2C[C@H](O)CC2CN1Cc1cccc2ccccc12 (stereo partly shown)", "92.5%"],
  ["CCCn1c(SC(C)C(=O)N2CCOCC2)nc2ccc(Br)cc2c1=O (stereo not shown)", "92.2%"],
  ["CCS(=O)(=O)N1CCCCCC1c1nn(C)cc1Cl (stereo not shown)", "83.6%"],
  ["Cn1cccc1-c1cc(C(=O)N/N=C/c2cccc(O)c2)[nH]n1", "89.9%"],
  ["Cc1nccn1CCNC(=O)c1cc(C2CCCCC2)no1", "89.6%"],
  ["CC(C)NC(=O)c1cc([C@H]2CC[C@H](CNC(=O)CN3CCCC3)CC2)nc2ccccc12", "85.7%"],
  ["Cc1cc(C)n(-c2cccc(C(=O)NCCn3ccnc3)c2)n1", "109%"],
  ["CN(C)/C=N/c1nc(=O)[nH]c2c1ncn2C1CC(O)C(CO)O1 (stereo not shown)", "118%"],
  ["Cc1nn(-c2ccccc2)c2nc(O)c(CNC(c3ccccc3)c3ccco3)cc12 (stereo not shown)", "83.8%"],
  ["COc1cc(/C=N/c2ccc3oc(-c4cccc(I)c4)nc3c2)ccc1OC(=O)c1ccc(Cl)cc1Cl", "95.3%"],
  ["O[C@@H]1C[C@@H](c2nc(-c3cccnc3)no2)N(Cc2cccs2)C1", "111%"]
]}

----------
assay: in vitro; conditions: human, hela cells, % viability, bulk resorufin, single well

{"columns": ["compound", "viability at 28.5 h, 10 µM [%]"],
 "data": [
  ["CC(C)(C)OC(=O)N1CCC2(CC1)OCc1cc(Br)ccc1O2", 99.4],
  ["CCC(C(=O)c1c[nH]c2ccc(OC)cc12)N(C)C (stereo not shown)", 96],
  ["CCOC(=O)N1CCC2(CC1)OCc1ccc(Oc3ccncc3)cc1O2", 102],
  ["COc1cc(-c2ccc3c(c2)OC2(CCNCC2)O3)ccn1", 106],
  ["O=C(O)c1ccccc1C(=O)N1CCC2(CC1)OCc1cc(-c3ccco3)ccc1O2", 93.6],
  ["O=C1NC(=S)N(Cc2ccccc2)C(=O)C1(CCc1ccncc1)CCc1ccncc1", 106],
  ["Cc1nnsc1C(=O)N[C@H]1CCN2C(=O)N(CCCl)C(=O)[C@@H]2C1", 95.6],
  ["Nc1ncnc2c1ncn2[C@@H]1O[C@H](CO)[C@H](O)C1O (stereo partly shown)", 95.8],
  ["Cc1ccc(Cn2nc(C(=O)NCCc3c[nH]c4ccccc34)c3ccccc32)cc1", 98.7],
  ["COc1ccc(CC(=O)Nc2cccc(-c3ccc4c(c3)COC3(CCNCC3)O4)c2)c(OC)c1", 89.6],
  ["O=C(O)CC1(CC(=O)N2CCC3(CC2)OCc2cc(F)ccc2O3)CCCC1", 94.7],
  ["O=[N+]([O-])c1cccc(-c2ccc3c(c2)COC2(CCNCC2)O3)c1", 105],
  ["O=C1NC(=O)N(Cc2ccccc2)C(=O)/C1=C\\NC(CO)(CO)CO", 104],
  ["COc1ccc(C(=O)Nc2ccc3c(c2)COC2(CCNCC2)O3)c(OC)n1 [CBK091528T]", 87.5],
  ["O=C(NC1CC1)c1nn(Cc2ccc(S(=O)(=O)N3CCCCC3)cc2)c2ccccc12", 106],
  ["COc1ccc2[nH]cc(CC(=O)N3CCC(C#N)(c4ccccc4)CC3)c2c1", 96.6],
  ["O=C(NNc1c(Cl)cccc1Cl)C(O)(c1ccccc1)c1ccccc1", 101],
  ["COc1ccc(Cl)cc1N1CCN(Cc2c(F)cccc2F)CC1", 90.9],
  ["COC(=O)CC1(CC(=O)OC)C(=O)N(C)C(=O)N(C)C1=O", 98.5]
]}
